Value source: patent US5567694A

target: Na^+,K^+ -ATPase; assay type: biochemical; parameters: unit not given here; settings: hydrolysis of ^32 P-ATP, purified Na^+,K^+ -ATPase
TEST READOUT: Inhibitory Activity log IC50
Answers are plain numbers.

# COMPOUND, Inhibitory Activity log IC50
records = [
    ("C[C@]12CC[C@H](O)C[C@H]1CC[C@@H]1[C@@H]2CC[C@]2(C)[C@@](O)(C3=CC(=O)OC3)CC[C@]12O [Ref. comp., reference compound]", 5.3),
    ("C[C@]12CCC(=NNC(=N)N)C[C@H]1CC[C@@H]1[C@@H]2CC[C@]2(C)[C@@](O)(c3ccccc3)CC[C@]12O", 4.6),
    ("COc1ccc([C@@]2(O)CC[C@]3(O)[C@@H]4CC[C@@H]5C[C@@H](O)CC[C@]5(C)[C@H]4CC[C@]23C)cc1", 4.5),
    ("C[C@]12CC[C@H](OCCO)C[C@H]1CC[C@@H]1[C@@H]2CC[C@]2(C)[C@@](O)(c3ccccc3)CC[C@]12O", 4.0),
]

Provide Inhibitory Activity log IC50 for all items below, preserving their order.
1. CN(C)CCCO[C@H]1CC[C@@]2(C)[C@H](CC[C@@H]3[C@@H]2CC[C@]2(C)[C@@](O)(c4ccccc4)CC[C@]32O)C1
2. CNCCO[C@H]1CC[C@@]2(C)[C@H](CC[C@@H]3[C@@H]2CC[C@]2(C)[C@@](O)(c4ccccc4)CC[C@]32O)C1
3. C[C@]12CC[C@H](O)C[C@H]1CC[C@@H]1[C@@H]2CC[C@]2(C)[C@@](O)(c3ccsc3)CC[C@]12O
4. CCN(CC)CCO[C@H]1CC[C@@]2(C)[C@H](CC[C@@H]3[C@@H]2CC[C@]2(C)[C@@](O)(c4ccc(OC)cc4)CC[C@]32O)C1
5. C[C@]12CC[C@H](OCCCN)C[C@H]1CC[C@@H]1[C@@H]2CC[C@]2(C)[C@@](O)(c3ccccc3)CC[C@]12O

Result:
[4.7, 4.8, 4.5, 4.8, 4.6]
